- protocolNotes: Solubility of free base and salt forms
- Type: physicochemical
- experimentalConditions: water

molecule: CCC(CC)c1cc(N[C@H]2CC[C@H](N)C2)n2nccc2n1 [Free base I]
solubility: 5900 µg/mL

###

- protocolNotes: Solubility of free base and salt forms
- Type: physicochemical
- experimentalConditions: Medium FaSSGF; pH Buffer 1.6; 2 h
observedProperty: Solubility (2 h)

compound: CCC(CC)c1cc(N[C@H]2CC[C@H](N)C2)n2nccc2n1 [Citrate I]
observedProperty: Solubility (2 h)
result: >127 mg/mL
//
compound: CCC(CC)c1cc(N[C@H]2CC[C@H](N)C2)n2nccc2n1 [Camsylate II]
observedProperty: Solubility (2 h)
result: >380 mg/mL
//
compound: CCC(CC)c1cc(N[C@H]2CC[C@H](N)C2)n2nccc2n1 [Tosylate III]
observedProperty: Solubility (2 h)
result: >129 mg/mL
//
compound: CCC(CC)c1cc(N[C@H]2CC[C@H](N)C2)n2nccc2n1 [Oxalate III]
observedProperty: Solubility (2 h)
result: >392 mg/mL
//
compound: CCC(CC)c1cc(N[C@H]2CC[C@H](N)C2)n2nccc2n1 [Fumarate III]
observedProperty: Solubility (2 h)
result: >48 mg/mL
